MEASURED_ON: Lethal factor protease (Bacillus anthracis, UniProt P15917)
Sequence (P15917 34-809 limits assumed): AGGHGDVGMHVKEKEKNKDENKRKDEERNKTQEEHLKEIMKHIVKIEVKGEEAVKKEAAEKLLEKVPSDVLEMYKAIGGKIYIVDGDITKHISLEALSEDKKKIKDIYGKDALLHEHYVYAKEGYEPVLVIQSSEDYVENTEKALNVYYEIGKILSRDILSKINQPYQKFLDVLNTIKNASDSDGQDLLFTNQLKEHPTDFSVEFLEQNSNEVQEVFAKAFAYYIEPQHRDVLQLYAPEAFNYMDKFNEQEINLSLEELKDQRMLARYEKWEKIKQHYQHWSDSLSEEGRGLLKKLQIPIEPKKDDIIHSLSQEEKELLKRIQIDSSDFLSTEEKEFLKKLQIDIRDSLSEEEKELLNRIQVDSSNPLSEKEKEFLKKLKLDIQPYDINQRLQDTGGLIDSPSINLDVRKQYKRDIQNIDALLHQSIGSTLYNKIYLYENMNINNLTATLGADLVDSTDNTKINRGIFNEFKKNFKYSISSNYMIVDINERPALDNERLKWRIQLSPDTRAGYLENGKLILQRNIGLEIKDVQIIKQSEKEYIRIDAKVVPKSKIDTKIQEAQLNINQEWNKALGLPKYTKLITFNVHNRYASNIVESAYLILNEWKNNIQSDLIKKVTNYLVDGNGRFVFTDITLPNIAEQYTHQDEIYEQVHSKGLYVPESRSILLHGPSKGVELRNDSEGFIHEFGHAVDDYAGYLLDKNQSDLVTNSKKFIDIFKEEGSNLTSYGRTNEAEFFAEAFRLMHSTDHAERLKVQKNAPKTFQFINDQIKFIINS

| COMPOUND | Ki |
| --- | --- |
| CCCCC(C(=O)NO)[S+]([O-])c1ccc(F)c(C)c1 (single isomer, unassigned) [Compound 167352] | 67000 nM |
| Cc1cc(O[C@H](CCCCNCc2ccco2)C(=O)NO)ccc1F [Compound 168184] | 750 nM |
| CCC[C@@H](Oc1ccc(F)c(C)c1)C(=O)NO [Compound 168090] | 3700 nM |
| Cc1cc(CNCCCC[C@@H](Oc2ccc(F)c(C)c2)C(=O)NO)ccc1F [Compound 168097] | 210 nM |

----------
MEASURED_ON: Lethal factor protease (Bacillus anthracis, UniProt P15917)
ASSAY_PROTOCOL: biochemical
TEST_CONDITIONS: LF (FRET) Ki^app
pKi: −log10 of the molar value.
MEASURED_QUANTITY: pKi

| COMPOUND | MEASURED_ON | MEASURED_QUANTITY | MEASURED_RESULT |
| --- | --- | --- | --- |
| Cc1cc(O[C@H](C/C=C/COCc2ccccc2)C(=O)NO)ccc1F | Lethal factor protease (Bacillus anthracis, UniProt P15917) | pKi | 6.11 |
| O=C(COc1ccc(F)cc1)NO [Compound 168128, 2-(4-fluorophenoxy)-N-hydroxyacetamide] | Lethal factor protease (Bacillus anthracis, UniProt P15917) | pKi | 4.21 |
| O=C(COc1ccc(Cl)cc1)NO [Compound 168129, 2-(4-chlorophenoxy)-N-hydroxyacetamide] | Lethal factor protease (Bacillus anthracis, UniProt P15917) | pKi | 4.08 |
| CCCCC(C(=O)NO)S(=O)(=O)c1ccc(F)c(C)c1 (stereo not drawn) | Lethal factor protease (Bacillus anthracis, UniProt P15917) | pKi | 4.52 |
| CCCCC(Oc1ccc(F)c(C)c1)C(=O)NO (stereo not drawn) | Lethal factor protease (Bacillus anthracis, UniProt P15917) | pKi | 5.26 |
| Cc1cc(O[C@H](CCCCNCc2cccs2)C(=O)NO)ccc1F | Lethal factor protease (Bacillus anthracis, UniProt P15917) | pKi | 6.68 |

----------
MEASURED_ON: UniProt:P15917
MEASURED_QUANTITY: log10 Ki (log10 of the value in nM)

| COMPOUND | MEASURED_ON | log10 Ki |
| --- | --- | --- |
| Cc1cc(OCC(=O)NO)cc(C)c1F [Compound 168115] | UniProt:P15917 | 3.40 |
| CCCCC(C(=O)NO)[S+]([O-])c1ccc(F)c(C)c1 (single isomer, unassigned) [Compound 167351] | UniProt:P15917 | 4.01 |
| O=C(NO)[C@@H](CCCCOCc1ccccc1)Oc1ccc(F)c(Cl)c1 [Compound 168187] | UniProt:P15917 | 3.03 |
| Cc1cc(COCCCC[C@@H](Oc2ccc(F)c(C)c2)C(=O)NO)ccc1F [Compound 168113] | UniProt:P15917 | 2.73 |
| O=C(NO)[C@@H](C/C=C\COCc1ccccc1)Oc1ccc(F)c(Cl)c1 [Compound 168160] | UniProt:P15917 | 3.10 |
| Cc1cc(O[C@H](CCCCO)C(=O)NO)ccc1F [Compound 168176] | UniProt:P15917 | 3.25 |
| Cc1cc(O[C@H](CCCCNCC2CC3CCC2C3)C(=O)NO)ccc1F (stereo partly drawn) [Compound 168183] | UniProt:P15917 | 2.23 |
| CCCCC(C(=O)NO)[S+]([O-])c1ccc(F)c(C)c1 (stereo not drawn) [Compound 167316] | UniProt:P15917 | 4.26 |
| Cc1cc(CNCCCC[C@@H](Oc2cc(C)c(F)c(C)c2)C(=O)NO)ccc1F [Compound 168100] | UniProt:P15917 | 2.76 |
